In this section, each of the compounds is paired with its reported half-life at 1 µM.
- Protocol Summary: Metabolic stability in human liver microsomes (Pharmaron)
- Experimental Parameters: both, human, microsomes, Traditional t1/2, human liver microsomes, Figure 6B
Report the value in min with no unit label.

Structure Smiles: C[C@@H](NCCCc1cccc(C(F)(F)F)c1)c1cccc2ccccc12
Observed Value: 21.1

// below: half-life at 1 µM requested for another compound
Q: For the compound C[C@@H](NCCCc1cccc(C(F)(F)F)c1)c1cccc2c1CCCC2 , give its reported half-life at 1 µM.
Result: 21

* * *

- Protocol Summary: Metabolic stability in human liver microsomes (Pharmaron)
- Experimental Parameters: both, human, microsomes, in vitro t1/2, human liver microsomes, Table S21
In this section, each of the molecules is paired with its reported half-life at 1 µM.
Report the value in min with no unit label.

Structure Smiles: C[C@@H](NCCCc1cccc(C(F)(F)F)c1)c1cccc2ccccc12
half-life at 1 µM, min: 21.1

// below: half-life at 1 µM requested for another molecule
Q: For the molecule C[C@@H](NCCCc1cccc(C(F)(F)F)c1)c1cccc2c1CCCC2 , give its reported half-life at 1 µM.
Result: 21

* * *

In this section, each of the molecules is paired with its reported remaining at 1 h, 105 µM.
- Protocol Summary: High-throughput (direct-to-biology) human liver microsomal stability assay
- Experimental Parameters: both, human, microsomes, pH 7.4
Report the value in % with no unit label.

Field: example entries. Status: answers known.
Molecule: CCN(CC)C(=O)c1cccc(C)c1 [Diethyltoluamide]
Unit Name: %
Observed Value: 75.5
--
Molecule: CCN(Cc1ccncc1)C(=O)C(CO)c1ccccc1 (centres unmarked) [Tropicamide]
Unit Name: %
Observed Value: 88.1
--
Molecule: Nc1c2ccccc2nc2ccccc12
Unit Name: %
Observed Value: 66.2
--
Molecule: CC(C(=O)O)c1ccc(-c2ccccc2)c(F)c1 (centres unmarked)
Unit Name: %
Observed Value: 9.28
--
Molecule: CCC1(c2ccccc2)C(=O)NCNC1=O
Unit Name: %
Observed Value: 27.8

Q: For the molecule CCCNC(C)C(=O)Nc1ccccc1C (centres unmarked) , give its reported remaining at 1 h, 105 µM.
Result: 67.4

Q: For the molecule C[C@@H](NCCCc1cccc(C(F)(F)F)c1)c1cccc2ccccc12 , give its reported remaining at 1 h, 105 µM.
Result: 35.4

Q: For the molecule CC(C(=O)O)c1ccc(N2Cc3ccccc3C2=O)cc1 (centres unmarked) , give its reported remaining at 1 h, 105 µM.
Result: 102

Q: For the molecule COc1ccccc1N1CCN(CC(O)COc2cccc3ccccc23)CC1 (centres unmarked) , give its reported remaining at 1 h, 105 µM.
Result: 47

Q: For the molecule CCOC(=O)[C@H](C)C[C@@H](Cc1ccc(-c2ccccc2)cc1)NC(=O)CCC(=O)O , give its reported remaining at 1 h, 105 µM.
Result: 22.6

Q: For the molecule COC(=O)N[C@H](C(=O)N[C@@H](Cc1ccccc1)[C@@H](O)CN(Cc1ccc(-c2ccccn2)cc1)NC(=O)[C@@H](NC(=O)OC)C(C)(C)C)C(C)(C)C , give its reported remaining at 1 h, 105 µM.
Result: 65.3

Q: For the molecule CN(Cc1ccc(C(C)(C)C)cc1)Cc1cccc2ccccc12 , give its reported remaining at 1 h, 105 µM.
Result: 94.9

Q: For the molecule O=C(C1CCCCC1)N1CC(=O)N2CCc3ccccc3C2C1 (centres unmarked) , give its reported remaining at 1 h, 105 µM.
Result: 15.3

Q: For the molecule COc1ccc2cc(CCC(C)=O)ccc2c1 , give its reported remaining at 1 h, 105 µM.
Result: 21.7

Data provenance is paper PMC11066876.
